Kindly supply the reported growth inhibition values for the records listed here.
# Test system: Listeria monocytogenes 10403S
# assay.comment: growth inhibition relative to ceftriaxone-alone control; higher = stronger potentiation of ceftriaxone growth inhibition
# applied.conditions: 10 µM; ceftriaxone 1 ug/ml; 12 h
Where a name gives a salt, the structure may show the parent alone.
Answers are plain numbers, in %.

Solved entries:
CC(C)(C)c1cc(/C=C(\C#N)C(N)=S)cc(C(C)(C)C)c1O | 72.8
Cc1nn(C)c2cc(N(C)c3ccnc(Nc4cccc(S(N)(=O)=O)c4)n3)ccc12 | 10.1
CNC(=O)c1cncc(/C=C/c2c(C)cccc2C)c1 | -1.2
NC(=O)c1sc(-n2cnc3ccccc32)cc1OCc1ccccc1Br | -4.4
CCn1c(-c2nonc2N)nc2ccncc21 | -0.136

For each entry beneath this line, provide reported growth inhibition.
1. O=C1NC(=O)/C(=C/c2ccc(-c3ccc(F)cc3O)o2)S1
2. CN1CC[C@H](c2c(O)cc(O)c3c(=O)cc(-c4ccccc4Cl)oc23)[C@H](O)C1 [Flavopiridol HCl]
3. CN1CCC(n2cnc(-c3ccc(F)cc3)c2-c2ccnc(N)n2)CC1
4. N#C/C(=C\c1ccc(O)c(O)c1)C(=O)NCc1ccccc1
5. CNC(=O)c1cc(COc2nnc(Nc3ccc(Cl)cc3)c3ccoc23)ccn1
6. COc1ccc(-c2nn3ncccc3c2-c2ccnc(Nc3ccc4c(c3)OCCO4)n2)cc1

[70.7, 10.3, -0.672, 28.7, 22.8, -7.96]

For each entry beneath this line, provide reported growth inhibition.
1. CCc1cccc(CC)c1/C=C/c1cncc(C(=O)NC)c1
2. COc1cc(Nc2ncc3c(C)nc(-c4cccc(C(F)(F)F)c4)n3n2)cc(OC)c1OC

[14.6, -2.03]

For each entry beneath this line, provide reported growth inhibition.
1. COC(=O)c1cncc(/C=C/c2c(C)cc(O)cc2C)c1
2. Cc1ccc(Nc2ccnc(Nc3cccc(C(N)=O)c3)n2)cc1O
3. Fc1ccc(-c2ncn(C3CCNCC3)c2-c2ccnc(Oc3ccc4c(c3)OCO4)n2)cc1
4. Cc1ccc(C(=O)NC(C)C)cc1-c1ccc(C(=O)NCC2CC2)cc1
5. O=C(NOCC(O)CO)c1cc(Br)c(F)c(F)c1Nc1ccc(I)cc1F (stereo not given)
6. CCCN1CCC(c2ccc(Nc3nc(Nc4cc(F)ccc4C(N)=O)c4cc[nH]c4n3)c(OC)c2)CC1

1: -6.45; 2: -4.84; 3: -3.86; 4: -1.2; 5: 100; 6: -8.21

For each entry beneath this line, provide reported growth inhibition.
1. CCS(=O)(=O)c1ccc(OC)c(Nc2ncc(-c3cccc(F)c3)o2)c1
2. [O-][S+]1CCN(Cc2ccc(-c3ccc4ncnc(Nc5ccc(OCc6cccc(F)c6)c(Cl)c5)c4c3)o2)CC1
3. Cc1ncc(-c2ccnc(Nc3ccc(S(C)(=O)=O)cc3)n2)n1C(C)C
4. CC(C)=Cc1cccc2c1/C(=N/Nc1ccc(S(N)(=O)=O)cc1)C(=O)N2
5. COc1cc(/C=N/Nc2ncnc3[nH]ncc23)ccc1O

1: 2.54; 2: -4.71; 3: 97.4; 4: -2.72; 5: 6.52

###

Kindly supply the reported growth inhibition values for the records listed here.
# Test system: Listeria monocytogenes 10403S;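 further: End-point A600 read in BHI broth at 37 °C with 2% DMSO, inhibition computed as (1 − OD with compound plus ceftriaxone ÷ OD with ceftriaxone only) × 100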
# assay.comment: growth inhibition relative to ceftriaxone-alone control; higher = stronger potentiation of ceftriaxone growth inhibition
# applied.conditions: 10 µM; ceftriaxone 1 ug/ml; 12 h
One number for each entry, in %.

Solved entries:
CS(=O)(=O)Nc1ccc(N/C=C2\C(=O)Nc3ccccc32)cc1 | -14.6
OCCn1cc(-c2cnc3nnn(Cc4ccc5ncccc5c4)c3n2)cn1 | 22.9
CC1=C(C(=O)Nc2ccc3[nH]ncc3c2)C(c2ccc(Cl)c(Cl)c2)CC(=O)N1 (stereo not given) | -13
C=CC(=O)Nc1cccc(Oc2nc(Nc3ccc(N4CCN(C)CC4)cc3)ncc2Cl)c1 | 13.3
Cc1c2ccc(N(C)c3ccnc(Nc4cccc(S(N)(=O)=O)c4)n3)cc2nn1C | 2.52

For each entry beneath this line, provide reported growth inhibition.
1. CS(=O)(=O)CCNCc1ccc(-c2ccc3ncnc(Nc4ccc(OCc5cccc(C(F)(F)F)c5)cc4)c3c2)o1
2. NS(=O)(=O)c1ccc(N/C=C2\C(=O)Nc3ccc4ncsc4c32)cc1
3. CC(C)c1ccc(-c2cc(-c3c[nH]nc3-c3ccccn3)ccn2)cc1
4. N#Cc1c(NC(=O)c2ccccc2F)sc2c1CCCC2
5. COc1cccc(-c2c[nH]c3c(N/N=C/c4ccncc4)ncnc23)c1

1: -9.85; 2: -2.62; 3: -6.81; 4: -3.06; 5: -10.6
